- test_target: Histamine H2 receptor (Cavia porcellus)
- assay_protocol: Histamine H2 receptor blocking activity was determined in the isolated guinea pig right atrium against histamine stimulated tachycardia
- Assay type: tissue-based
- condition_context: Cardiac atrium
measurement_name: -Log KB

These recorded examples may help you get a feel for the data.
Cc1[nH]cnc1CSCCNc1nccc(O)c1[N+](=O)[O-] | 6.44
C/N=c1\c(O)c(O)\c1=N\CCSCc1[nH]cnc1C | 4.23
Cc1[nH]cnc1CSCCNC1=C([N+](=O)[O-])CCN1 | 6.31
Cc1[nH]cnc1CSCCNc1nccc(O)n1 | 5.13
C/N=C(/NCCSCc1[nH]cnc1C)N[N+](=O)[O-] | 5.84

1. Cc1[nH]cnc1CSCCNC1=NC(=O)CN1
2. CNC(=S)NCCSCc1[nH]cnc1C
Inquiry: Could you please tell me which of these two has the higher -Log KB: 1 or 2 ? Response format: the label of the selected entry.
Reply text: 2
(2: 6.04, 1: 4.21)

###

- test_target: Histamine H2 receptor (Cavia porcellus) (UniProt P47747)
- Sequence (P47747 whole entry): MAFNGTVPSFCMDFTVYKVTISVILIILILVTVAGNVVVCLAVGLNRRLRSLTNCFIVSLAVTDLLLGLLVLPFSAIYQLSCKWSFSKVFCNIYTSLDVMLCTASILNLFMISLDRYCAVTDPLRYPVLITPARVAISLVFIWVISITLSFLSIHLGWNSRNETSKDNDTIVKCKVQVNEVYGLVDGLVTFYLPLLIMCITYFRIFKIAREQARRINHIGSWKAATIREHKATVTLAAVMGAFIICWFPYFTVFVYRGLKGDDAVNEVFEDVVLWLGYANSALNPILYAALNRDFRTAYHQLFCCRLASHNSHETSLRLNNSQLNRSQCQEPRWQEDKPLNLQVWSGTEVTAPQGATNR
- assay_protocol: Histamine H2 receptor blocking activity was determined in the isolated guinea pig right atrium against histamine stimulated tachycardia
- Assay type: tissue-based
- condition_context: Cardiac atrium
measurement_name: -Log KB

Below, each entry is followed by its recorded -Log KB result.
Cc1[nH]cnc1CSCCNC1=NCCS(=O)(=O)N1 | 4.57
CN/C(=C/[N+](=O)[O-])NCCSCc1[nH]cnc1C | 5.85
CNC(=O)NCCSCc1[nH]cnc1C | 4.69

I. Cc1[nH]cnc1CSCCNc1cc(O)ccn1
II. Cc1[nH]cnc1CSCCNc1[nH]ccc1[N+](=O)[O-]
Inquiry: Lower value for measured -Log KB? Options: I , II Record your answer as the label of the chosen record.
Reply text: I
(I: 4.8, II: 7.31)

###

- assay_protocol: Partition coefficient (logD) (octanol/borax buffer)
- Type: physicochemical
measurement_name: logD

Previously resolved entries follow.
Cc1[nH]cnc1CSCCNc1nccc(O)c1[N+](=O)[O-] | -0.2
Cc1[nH]cnc1CSCCNc1cccc(O)n1 | 0.79
Cc1[nH]cnc1CSCCNC1=NC(=O)CN1 | -0.5
Cc1[nH]cnc1CSCCNC1=NCCS(=O)(=O)N1 | -0.74

I. Cc1[nH]cnc1CSCCNc1cc(O)ccn1
II. Cc1[nH]cnc1CSCCNC1=C([N+](=O)[O-])CCN1
III. CNC(=O)NCCSCc1[nH]cnc1C
Inquiry: I would appreciate it if you could sort these 3 compounds by logD, starting from the smallest number. Write the labels, ordered according to the request.
Reply text: II, III, I

I. C/N=C(\S)NCCSCc1[nH]cnc1C [METIAMIDE]
II. C/N=c1\c(O)c(O)\c1=N\CCSCc1[nH]cnc1C
III. Cc1[nH]cnc1CSCCNc1ccnc(O)n1
IV. Cc1[nH]cnc1CSCCNc1[nH]ccc1[N+](=O)[O-]
Inquiry: Let's sort these by logD, smallest first. Go ahead? Could you list the labels in the order requested?
Reply text: III, II, I, IV

A. Cc1[nH]cnc1CSCCNc1nccc(O)n1
B. CN/C(=C/[N+](=O)[O-])NCCSCc1[nH]cnc1C
Inquiry: Which has the higher logD, A or B ? State your choice using its label.
Reply text: A

Sourced from ChEMBL document CHEMBL1123209
